- targetDesc: T1, Source 1 VEGF-D, mature dimeric recombinant human VEGF-D (CSIRO) (human, UniProt O43915 89-205)
- T1 construct: Whole entry named; also called Source 1 VEGF-D dimer; VEGF-D dimer
- T1 sequence: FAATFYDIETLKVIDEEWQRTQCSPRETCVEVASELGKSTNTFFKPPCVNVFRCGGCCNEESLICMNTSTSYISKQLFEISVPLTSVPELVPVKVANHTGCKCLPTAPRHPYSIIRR
- testProtocol: SPR Protocol A, KD against that of Ig-1A
Reported values of Fold-improvement with respect to Ig-1A for individual entries
Answer format: numeric, fold implied, no suffix.

Would you please look over these solved cases?
binder	Fold-improvement with respect to Ig-1A (fold)
humanized IgG antibody derived from clone HW78 (antibody, V domains shown, IgG) VH: QVQLVQSGAEVKQPGASVKVSCKARGYTFTGYNMYWVRQAPGQGLEWMGYIDPYNGDTTYNQKFKGRVTMTTDTSTGTAYMKLRSLRSDDTAVYYCARTSYYGGMDYWGRGTLVTVAS VL: DIVMTQTPLSSPVTLGQPASISCRSSQSLVHSNGNTYLHWLQQRPGQPPRLLIYKVSNRFSGVPDRFSGSGAGTDFTLKISRVEAEDVGVYYCSQSTHVPRTFGQGTKLEIKR	2
humanized IgG antibody derived from clone HU75 (antibody, V domains shown, IgG) VH: QVQLVQSGAEVKQPGASVKVSCKASGYTFTGYNMYWVRQAPGQGLEWMGYIDPYNGDTTYNQKFKGRVTMTTDTSTSTAYMKLRSLRSDDTAVYYCARTSYYGGMDYWGRGTLVTVAS VL: DIVMTQTPLSGPVTLGQPASISCRSSQSLVHSNGNTYLHWLQQRPGQPPRLLIYKVSNRFSGVPDRFSGSGAGTDFTLKISRVEAEDVGVYYCSQSTHVPRTFGRGTKLEIKR	5.5

For the next question, use this binder.
Any idea what Fold-improvement with respect to Ig-1A was measured for humanized IgG antibody derived from clone DI26 (antibody, V domains shown, IgG) VH: QVQLVQSGAKVKQPGASVKASCKASGYTFTGYNMYWVRQAPGQGLEWMGYIDPYSGDTTYNQKFKGRVTMTTDTSTSTAYMELRSLRSDDTAVYYCARTSYYGGMDYWGRGTLVTVAS VL: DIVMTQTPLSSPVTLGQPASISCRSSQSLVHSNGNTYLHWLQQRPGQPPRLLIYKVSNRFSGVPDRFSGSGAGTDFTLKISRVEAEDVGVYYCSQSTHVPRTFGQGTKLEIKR ?
1
